Target: BTK enzyme (recombinant full-length BTK, hBTK) (Homo sapiens (Human), UniProt Q06187)
Sequence (Q06187 whole entry): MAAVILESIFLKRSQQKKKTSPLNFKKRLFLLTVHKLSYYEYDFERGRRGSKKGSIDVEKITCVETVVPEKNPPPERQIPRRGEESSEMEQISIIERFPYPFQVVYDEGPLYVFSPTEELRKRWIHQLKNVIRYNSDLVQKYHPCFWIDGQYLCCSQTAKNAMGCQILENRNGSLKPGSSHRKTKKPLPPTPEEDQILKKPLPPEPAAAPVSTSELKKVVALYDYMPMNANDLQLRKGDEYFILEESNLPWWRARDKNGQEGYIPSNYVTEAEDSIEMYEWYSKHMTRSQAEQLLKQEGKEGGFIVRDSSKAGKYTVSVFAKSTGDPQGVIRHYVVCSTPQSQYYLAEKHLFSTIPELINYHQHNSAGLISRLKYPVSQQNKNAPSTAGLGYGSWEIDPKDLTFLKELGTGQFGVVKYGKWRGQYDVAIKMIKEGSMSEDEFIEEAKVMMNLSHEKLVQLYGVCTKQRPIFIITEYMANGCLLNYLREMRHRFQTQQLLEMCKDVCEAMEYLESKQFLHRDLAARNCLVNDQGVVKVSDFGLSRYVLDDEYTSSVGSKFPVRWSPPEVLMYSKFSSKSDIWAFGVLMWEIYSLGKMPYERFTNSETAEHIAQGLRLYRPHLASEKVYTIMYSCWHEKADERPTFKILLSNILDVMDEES
Assay: BTK enzymatic activity LANCE TR-FRET assay
Conditions: 50 pM hBTK, 25 μM ATP, 2 μM biotin-A5-peptide; compound range 1 μM to 0.017 nM; read-out: BTK binding IC50
Protocol: Btk Enzyme Activity Assay Methods BTK enzymatic activity was determined with the LANCE (Lanthanide Chelate Excite) TR-FRET (Time-resolved fluorescence resonance energy transfer) assay. […] After 60 minutes incubation with detection reagents, reaction plates were read on a PerkinElmer EnVision plate reader using standard TR-FRET protocol. […] IC50 values were determined by 4 parameter robust fit of TR-FRET ratio values vs. (Log10) compound concentrations.
pIC50: −log10 of the molar value.
Cut-off 7 on pIC50, inclusive. At or above means Y; below means N.

Consider the worked cases shown below.
>  <Molecule>
CC(O)(c1cccc(C(F)(F)F)c1)c1ccc(-c2nc([C@@H]3CC[C@@H]4N(C3)C(=O)CC4(C)C)n3ccnc(N)c23)c(F)c1 (some centres unmarked) [Example 194]

>  <Class Name>
Y

$$$$
>  <Molecule>
Cc1cc(-c2nc([C@@H]3CC[C@H]4CCC(=O)N4C3)n3ccnc(N)c23)ccc1C(C)(O)c1cccc(C(F)(F)F)c1 (some centres unmarked) [Example 42]

>  <Class Name>
N

$$$$
>  <Molecule>
CC(O)(c1cccc(C(F)(F)F)c1)c1ccc(-c2nc([C@@H]3CC[C@H]4CCC(=O)N4C3)n3c(Cl)cnc(N)c23)c(F)c1 (some centres unmarked) [Example 193]

>  <Class Name>
Y

$$$$

INPUT: I'd appreciate it if you could say whether C[C@@](O)(c1ccc(-c2nc([C@@H]3CC[C@H]4CCC(=O)N4C3)n3c(Cl)cnc(N)c23)cc1)c1cccc(C2CC2)c1 [Example 117] has pIC50 at least equal to 7.
OUTPUT: Y

INPUT: Same question, Nc1nccn2c([C@@H]3CC[C@H]4CCC(=O)N4C3)nc(-c3ccc(C(O)c4cc(C(F)(F)F)ccc4F)cc3)c12 (some centres unmarked) [Example 128] this time
OUTPUT: Y

INPUT: Same question, C[C@@](O)(c1ccc(-c2nc([C@@H]3CC[C@H]4CCC(=O)N4C3)n3ccnc(N)c23)cc1)c1cccc(-n2ccnc2)c1 [Example 152] this time
OUTPUT: Y

INPUT: Same question, C[C@](O)(c1cccc(C(F)(F)F)c1)c1ccc(-c2nc([C@@H]3CC[C@H]4CCC(=O)N4C3)n3ccnc(N)c23)c(C(F)F)c1 [Example 81] this time
OUTPUT: N

INPUT: Same question, CO[C@@](C)(c1ccc(-c2nc([C@@H]3CC[C@H]4CCC(=O)N4C3)n3ccnc(N)c23)cc1)c1cccc(C(F)(F)F)c1 [Example 90] this time
OUTPUT: N

* * *

System: adenosine uptake into HeLa cells
Assay: [3H]Adenosine uptake assay in HeLa cells
Type: cell-based
Settings: Homo sapiens, HeLa, [3H]adenosine accumulation in HeLa cells; compound range 10 μM to 0.032 nM; read-out: ADU inhibition IC50
Protocol: Compounds are also screened in an adenosine uptake functional cellular assay using the protocol described below: [^3H]Adenosine Uptake Assay Methods Adenosine uptake activity was determined by monitoring the accumulation of tritiated adenosine into HeLa cells (ATCC catalog # CCL-2) using a PMT-based radiometric detection instrument. […] The amount of radiolabel accumulation was then determined using a Perkin Elmer Topcount NXT microplate reader. […]
Measured Quantity: IC50

The cases that follow already have their IC50 on record.
>  <Compound>
CC(O)(c1ccc(-c2nc([C@@H]3CC[C@H]4CCC(=O)N4C3)n3ccnc(N)c23)cc1)c1cccnc1 (some centres unmarked)

>  <IC50>
10 µM

$$$$
>  <Compound>
CC1(C)C[C@@H]2CC[C@@H](c3nc(-c4ccc([C@@](C)(O)c5cccc(C(F)(F)F)c5)cc4)c4c(N)ncc(F)n34)CN2C1=O

>  <IC50>
6.85 µM

$$$$
>  <Compound>
C[C@@](O)(c1ccc(-c2nc([C@H]3CC[C@@H]4N(C3)C(=O)CCC4(F)F)n3ccnc(N)c23)cc1)c1cccc(C(F)(F)F)c1

>  <IC50>
7.96 µM

$$$$

INPUT: // returns reported IC50 for input "CC(C)(C)c1cccc([C@](C)(O)c2ccc(-c3nc([C@@H]4CC[C@H]5CCC(=O)N5C4)n4ccnc(N)c34)cc2)c1"
OUTPUT: 1.76 µM

INPUT: Same question, "C[C@@](O)(c1ccc(-c2nc([C@@H]3CC[C@H]4N(C3)C(=O)CCC4(F)F)n3ccnc(N)c23)cc1)c1cccc(C(F)(F)F)c1" this time
OUTPUT: 7.11 µM

INPUT: Same question, "C[C@@](O)(c1ccc(-c2nc([C@@H]3CC[C@H]4CCC(=O)N4C3)n3c(C(F)(F)F)cnc(N)c23)cc1)c1cccc(C(F)(F)F)c1" this time
OUTPUT: 5.11 µM

INPUT: Same question, "C[C@](O)(c1ccc(-c2nc([C@@H]3CC[C@H]4CCC(=O)N4C3)n3ccnc(N)c23)cc1)c1ccnc(C(F)(F)F)c1" this time
OUTPUT: 0.464 µM

INPUT: Same question, "C[C@@](O)(c1ccc(-c2nc([C@@H]3CC[C@H]4CCC(=O)N4C3)n3ccnc(N)c23)cc1)c1ccccc1F" this time
OUTPUT: 6.47 µM

INPUT: Same question, "C[C@](O)(c1ccc(-c2nc([C@@H]3CC[C@H]4CCCN4C3)n3ccnc(N)c23)cc1)c1cccc(C(F)(F)F)c1" this time
OUTPUT: 1.47 µM

INPUT: Same question, "C[C@@](O)(c1ccc(-c2nc([C@@H]3CC[C@@H]4N(C3)C(=O)CC43CC3)n3ccnc(N)c23)cc1)c1cccc(C(F)(F)F)c1" this time
OUTPUT: 2.5 µM

INPUT: Same question, "C[C@@](O)(c1ccc(-c2nc([C@@H]3CC[C@H]4CCC(=O)N4C3)n3c(Cl)cnc(N)c23)cc1)c1cccc(C(F)F)c1" this time
OUTPUT: 2.33 µM

INPUT: Same question, "CC1(C)C[C@@H]2CC[C@@H](c3nc(-c4ccc([C@@](C)(O)c5cccc(C(F)(F)F)c5)cc4)c4c(N)nccn34)CN2C1=O" this time
OUTPUT: 2.79 µM

INPUT: Same question, CC(O)(c1ccccc1)c1ccc(-c2nc([C@@H]3CC[C@H]4CCC(=O)N4C3)n3ccnc(N)c23)c(F)c1 (some centres unmarked) this time
OUTPUT: 2.49 µM

INPUT: Same question, CC(O)(c1ccc(F)cc1)c1ccc(-c2nc([C@@H]3CC[C@H]4CCC(=O)N4C3)n3ccnc(N)c23)cc1 (some centres unmarked) this time
OUTPUT: 2.36 µM

* * *

test system: adenosine uptake into HeLa cells; assay: [3H]Adenosine uptake assay in HeLa cells; type: cell-based; settings: Homo sapiens, HeLa, [3H]adenosine accumulation in HeLa cells; compound range 10 μM to 0.032 nM; read-out: ADU inhibition IC50
Listing of entries alongside the reported IC50.
Value expressed in µM; do not type the unit.

The cases that follow already have their IC50 on record.
>  <Compound>
C[C@@](O)(c1ccc(-c2nc([C@@H]3CC[C@H]4CCC(=O)N4C3)n3ccnc(N)c23)cc1)c1cncc(C(F)(F)F)c1

>  <Measured Quantity>
IC50

>  <U>
µM

>  <Endpoint Result>
4.62

$$$$
>  <Compound>
CC(O)(c1ccc(-c2nc([C@@H]3CC[C@H]4CCC(=O)N4C3)n3ccnc(N)c23)cc1)c1cccc(C(F)(F)F)c1 (stereo partly shown)

>  <Measured Quantity>
IC50

>  <U>
µM

>  <Endpoint Result>
0.873

$$$$
>  <Compound>
Nc1nccn2c([C@@H]3CC[C@H]4CCC(=O)N4C3)nc(-c3ccc([C@](O)(CO)c4cccc(C(F)(F)F)c4)cc3)c12

>  <Measured Quantity>
IC50

>  <U>
µM

>  <Endpoint Result>
0.53

$$$$

INPUT: // returns reported IC50 for input CC(O)(c1ccc(-c2nc([C@@H]3CC[C@H]4CCC(=O)N4C3)n3ccnc(N)c23)cc1)c1cc(C(F)(F)F)ccc1F (stereo partly shown)
OUTPUT: 1.22

INPUT: Same question, "COc1cccc([C@](C)(O)c2ccc(-c3nc([C@@H]4CC[C@H]5CCC(=O)N5C4)n4ccnc(N)c34)cc2)c1" this time
OUTPUT: 2.76

INPUT: Same question, "C[C@@](O)(c1ccc(-c2nc([C@H]3CN4C(=O)COC[C@@H]4CO3)n3ccnc(N)c23)cc1)c1cccc(C(F)(F)F)c1" this time
OUTPUT: 4.27

INPUT: Same question, "C[C@@](O)(c1ccc(-c2nc([C@@H]3CC[C@H]4CCC(=O)N4C3)n3ccnc(N)c23)cc1)c1cccc(C(F)F)c1" this time
OUTPUT: 5.12
